This collection of values is drawn from ChEMBL document CHEMBL3774373.

assay-procedure: Cytotoxicity against human HepG2 cells after 24 hrs by resazurin assay
Assay type: cell-based
condition-context: HepG2 cells
Bridge positions count the residues as written; N and C are the ends. Square brackets hold non-standard residues; d marks the D form. Peptide text beside a SMILES is read from it. * marks the point of attachment. hSer = N[C@@H](CCO)C(=O)O; Octanoyl = CCCCCCCC(=O)*; Dab = NCC[C@H](N)C(=O)O
Examples of molecules with documented CC50 at 24 h follow.

molecule	CC50 at 24 h
CCCCCCCC(=O)N[C@@H](CCN)C(=O)N[C@H](C(=O)N[C@@H](CCN)C(=O)N[C@H]1CCNC(=O)[C@H]([C@@H](C)O)NC(=O)[C@H](CCN)NC(=O)[C@H](CCN)NC(=O)[C@H](CC(C)C)NC(=O)[C@@H](Cc2ccccc2)NC(=O)[C@H](CCO)NC1=O)[C@@H](C)O (Octanoyl-[Dab]T[Dab][Dab][hSer][dF]L[Dab][Dab]T; lactam 4-C)	> 300 µM
CCCCCCCC(=O)N[C@@H](CCN)C(=O)N[C@H](C(=O)N[C@@H](CCN)C(=O)N[C@H]1CCNC(=O)[C@H]([C@@H](C)O)NC(=O)[C@H](CCN)NC(=O)[C@H](CCN)NC(=O)[C@H](CC(C)C)NC(=O)[C@@H](Cc2ccccc2)NC(=O)[C@H](CCNC(=O)[C@@H](N)CCCNC(=N)N)NC1=O)[C@@H](C)O (Octanoyl-[Dab]T[Dab][Dab][Dab](Arg)[dF]L[Dab][Dab]T; lactam 4-C)	> 300 µM
CCCCCCCC(=O)N[C@@H](CCN)C(=O)N[C@H](C(=O)N[C@@H](CCN)C(=O)N[C@H]1CCNC(=O)[C@H]([C@@H](C)O)NC(=O)[C@H](CCN)NC(=O)[C@H](CCN)NC(=O)[C@H](CC(C)C)NC(=O)[C@@H](Cc2ccccc2)NC(=O)[C@H](CCN)NC1=O)[C@@H](C)O (Octanoyl-[Dab]T[Dab][Dab][Dab][dF]L[Dab][Dab]T; lactam 4-C)	> 300 µM

----------
assay-procedure: Cytotoxicity against HEK293 cells after 24 hrs by resazurin assay
Type: cell-based
condition-context: human, HEK293 cells
Numbered stars: 1 amine (or outer) side, 2 acyl side, 3 side chain; on linkers, the order of the positions; unused ones are H or OH. Bridge positions count the residues as written; N and C are the ends. Square brackets hold non-standard residues; d marks the D form. Peptide text beside a SMILES is read from it. * marks the point of attachment. Benzoyl(4-OPh) = O=C(c1ccc(Oc2ccccc2)cc1)*; Benzoyl(4-Ph) = O=C(c1ccc(-c2ccccc2)cc1)*; X1 = c1ccc(-c2ccc(N*)cc2)cc1; Octanoyl = CCCCCCCC(=O)*; Dab = NCC[C@H](N)C(=O)O; CO = O=C([*:1])[*:2]

compound	inequality-operator	CC50 at 24 h, µM
CCCCCCCC(=O)N[C@@H](CCN)C(=O)N[C@H](C(=O)NCC(=O)N[C@H]1CCNC(=O)[C@H]([C@@H](C)O)NC(=O)[C@H](CCN)NC(=O)[C@H](CCN)NC(=O)[C@H](CC(C)C)NC(=O)[C@@H](Cc2ccccc2)NC(=O)[C@H](CCN)NC1=O)[C@@H](C)O (Octanoyl-[Dab]TG[Dab][Dab][dF]L[Dab][Dab]T; lactam 4-C)	>	300
CC(C)C[C@@H]1NC(=O)[C@@H](Cc2ccccc2)NC(=O)[C@H](CCN)NC(=O)[C@@H](NC(=O)[C@H](CCN)NC(=O)[C@@H](NC(=O)[C@H](CCN)NC(=O)Nc2ccc(-c3ccccc3)cc2)[C@@H](C)O)CCNC(=O)[C@H]([C@@H](C)O)NC(=O)[C@H](CCN)NC(=O)[C@H](CCN)NC1=O ({X1-CO}-[Dab]T[Dab][Dab][Dab][dF]L[Dab][Dab]T; lactam 4-C)	>	300
CC(C)C[C@@H]1NC(=O)[C@@H](Cc2ccccc2)NC(=O)[C@H](CCN)NC(=O)[C@@H](NC(=O)[C@H](CCN)NC(=O)[C@@H](NC(=O)[C@H](CCN)NC(=O)c2ccc(Oc3ccccc3)cc2)[C@@H](C)O)CCNC(=O)[C@H]([C@@H](C)O)NC(=O)[C@H](CCN)NC(=O)[C@H](CCN)NC1=O ({Benzoyl(4-OPh)}-[Dab]T[Dab][Dab][Dab][dF]L[Dab][Dab]T; lactam 4-C)	=	296
CC(C)C[C@@H]1NC(=O)[C@@H](Cc2ccccc2)NC(=O)[C@H](CCN)NC(=O)[C@@H](NC(=O)[C@H](CCN)NC(=O)[C@@H](NC(=O)[C@H](CCN)NC(=O)c2ccc(-c3ccccc3)cc2)[C@@H](C)O)CCNC(=O)[C@H]([C@@H](C)O)NC(=O)[C@H](CCN)NC(=O)[C@H](CCN)NC1=O ({Benzoyl(4-Ph)}-[Dab]T[Dab][Dab][Dab][dF]L[Dab][Dab]T; lactam 4-C)	=	297
